Molecular target: T1, human IL-3 (human, UniProt P08700 20-152)
T1 sequence (looked up): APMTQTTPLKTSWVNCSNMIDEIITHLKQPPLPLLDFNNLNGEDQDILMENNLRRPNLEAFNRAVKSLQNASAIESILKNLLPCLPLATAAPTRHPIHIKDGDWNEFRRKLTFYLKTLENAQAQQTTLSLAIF
Assay: flow cytometry, 293F cells expressing mutant IL-3Rα and CD131
EXPERIMENTAL_READOUT: binding result

human IL-3Rα S59A/P88T double mutant, full length (receptor) TKEDPNPPITNLRMKAKAQQLTWDLNRNVTDIECVKDADYAMPAVNNSYCQFGAISLCEVTNYTVRVANTPFSTWILFPENSGKPWAGAENLTCWIHDVDFLSCSWAVGPGAPADVQYDLYLNVAKRQQYECLHYKTDAQGTRIGCRFDDISRLSSGSQSSHILVRGRSAAFGIPCTDKFVVFSQIEILTPPNMTAKCNKTHSFMHWKMRSHFNRKFRYELQIQKRMQPVITEQVRDRTSFQLLNPGTYTVQIRARERVYEFLSAWSTPQRFECDQEEGANTRAWRTSLLIALGTLLALVCVFVICRRYLVMQRLFPRIPHMKDPIGDSFQNDKLVVWEAGKAGLEECLVTEVQVVQKT	binds
human IL-3Rα E51Q/S59A double mutant, full length (receptor) TKEDPNPPITNLRMKAKAQQLTWDLNRNVTDIQCVKDADYAMPAVNNSYCQFGAISLCEVTNYTVRVANPPFSTWILFPENSGKPWAGAENLTCWIHDVDFLSCSWAVGPGAPADVQYDLYLNVAKRQQYECLHYKTDAQGTRIGCRFDDISRLSSGSQSSHILVRGRSAAFGIPCTDKFVVFSQIEILTPPNMTAKCNKTHSFMHWKMRSHFNRKFRYELQIQKRMQPVITEQVRDRTSFQLLNPGTYTVQIRARERVYEFLSAWSTPQRFECDQEEGANTRAWRTSLLIALGTLLALVCVFVICRRYLVMQRLFPRIPHMKDPIGDSFQNDKLVVWEAGKAGLEECLVTEVQVVQKT	binds
human IL-3Rα E51Q/P88T double mutant, full length (receptor) TKEDPNPPITNLRMKAKAQQLTWDLNRNVTDIQCVKDADYSMPAVNNSYCQFGAISLCEVTNYTVRVANTPFSTWILFPENSGKPWAGAENLTCWIHDVDFLSCSWAVGPGAPADVQYDLYLNVAKRQQYECLHYKTDAQGTRIGCRFDDISRLSSGSQSSHILVRGRSAAFGIPCTDKFVVFSQIEILTPPNMTAKCNKTHSFMHWKMRSHFNRKFRYELQIQKRMQPVITEQVRDRTSFQLLNPGTYTVQIRARERVYEFLSAWSTPQRFECDQEEGANTRAWRTSLLIALGTLLALVCVFVICRRYLVMQRLFPRIPHMKDPIGDSFQNDKLVVWEAGKAGLEECLVTEVQVVQKT	binds
